Biological target: BuChE from equine serum (eqBuChE) (Equus caballus)
Sequence (P81908 whole entry): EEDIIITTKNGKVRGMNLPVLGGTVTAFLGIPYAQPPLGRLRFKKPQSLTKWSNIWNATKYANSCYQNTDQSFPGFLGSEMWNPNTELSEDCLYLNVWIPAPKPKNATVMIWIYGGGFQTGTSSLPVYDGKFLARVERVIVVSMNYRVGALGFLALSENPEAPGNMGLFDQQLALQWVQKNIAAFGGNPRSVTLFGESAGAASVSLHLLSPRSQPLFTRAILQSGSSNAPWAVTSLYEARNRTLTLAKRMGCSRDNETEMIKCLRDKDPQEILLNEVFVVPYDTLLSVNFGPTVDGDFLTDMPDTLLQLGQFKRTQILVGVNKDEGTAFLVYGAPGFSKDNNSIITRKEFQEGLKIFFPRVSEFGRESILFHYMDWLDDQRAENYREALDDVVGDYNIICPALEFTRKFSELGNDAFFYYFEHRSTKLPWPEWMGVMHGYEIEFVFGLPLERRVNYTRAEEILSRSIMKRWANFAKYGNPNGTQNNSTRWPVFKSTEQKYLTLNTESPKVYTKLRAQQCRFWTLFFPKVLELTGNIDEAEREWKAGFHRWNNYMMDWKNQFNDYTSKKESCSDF
Assay: biochemical
Conditions: mean ± SEM, triplicate independent experiments
Exercise: for every item that follows, state its recorded IC50.
Use nM as the unit, but write only the number.

What value of measured IC50 is listed for CC1CCCN(CCCCCCOc2ccccc2C(=O)c2ccccc2)C1.O=C(O)C(=O)O (stereo not drawn) ?
2500

Note, next up: O=C(c1ccc(Cl)cc1)c1ccc(OCCCCCCN2CCCCCC2)cc1
867

Note, next up: CC1CCCN(CCCCCOc2ccc(C(=O)c3ccccc3)cc2)C1 (stereo not drawn)
3780

Note, next up: O=C(c1ccc(F)cc1)c1ccc(OCCCCCCN2CCCCC2)cc1
419

Note, next up: CC1CCCN(CCCCCCOc2cccc(C(=O)c3ccccc3)c2)C1 (stereo not drawn)
2900

Note, next up: CC1CCN(CCCCCOc2cccc(C(=O)c3ccccc3)c2)CC1
1700

Note, next up: O=C(O)C(=O)O.O=C(c1ccccc1)c1ccccc1OCCCCCN1CCCCC1
1610

Note, next up: O=C(c1ccc(F)cc1)c1ccc(OCCCCCCN2CCCCCC2)cc1
161

Note, next up: O=C(O)C(=O)O.O=C(c1ccccc1)c1ccccc1OCCCCCCN1CCCCCC1
317

###

Exercise: for every item that follows, state its recorded IC50.
Biological target: electric eel AChE (eeAChE) (Electrophorus electricus, UniProt O42275)
Construct: purchased Sigma–Aldrich (Steinheim, Germany)
Sequence (O42275 24-633): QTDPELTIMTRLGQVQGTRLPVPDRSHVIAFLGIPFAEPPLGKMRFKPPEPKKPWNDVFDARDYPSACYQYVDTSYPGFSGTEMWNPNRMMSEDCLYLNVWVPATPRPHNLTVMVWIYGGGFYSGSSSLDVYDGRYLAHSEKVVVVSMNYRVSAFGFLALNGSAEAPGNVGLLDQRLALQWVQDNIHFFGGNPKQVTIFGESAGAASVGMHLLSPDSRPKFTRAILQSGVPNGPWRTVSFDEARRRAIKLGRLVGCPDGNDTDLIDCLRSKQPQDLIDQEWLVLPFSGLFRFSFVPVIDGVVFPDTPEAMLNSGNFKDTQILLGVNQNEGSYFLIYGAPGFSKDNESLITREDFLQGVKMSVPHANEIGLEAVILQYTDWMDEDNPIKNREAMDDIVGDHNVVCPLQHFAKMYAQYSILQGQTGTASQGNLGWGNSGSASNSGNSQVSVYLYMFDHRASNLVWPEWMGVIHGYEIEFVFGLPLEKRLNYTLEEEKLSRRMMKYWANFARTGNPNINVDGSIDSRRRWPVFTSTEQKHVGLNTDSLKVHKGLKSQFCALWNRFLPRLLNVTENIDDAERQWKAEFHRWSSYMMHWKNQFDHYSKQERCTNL
Assay: biochemical
Details: mean ± SEM, triplicate independent experiments; read-out: eeAChE IC50
Use nM as the unit, but write only the number.

Param readout= IC50; system= electric eel AChE (eeAChE) (Electrophorus electricus, UniProt O42275); entry= O=C(c1ccc(Cl)cc1)c1ccc(OCCCCCN2CCCCC2)cc1 [Compound 5] ; returns value.
2870

Note, next up: O=C(c1ccc(Cl)cc1)c1ccc(OCCCCCCN2CCCCC2)cc1 [Compound 10]
2670

Note, next up: O=C(c1ccccc1)c1cccc(OCCCCCN2CCCCC2)c1 [Compound 3]
7750

Note, next up: O=C(c1ccc(F)cc1)c1ccc(OCCCCCCN2CCCCC2)cc1 [Compound 11]
3100

Note, next up: CC1CCN(CCCCCCOc2ccc(C(=O)c3ccccc3)cc2)CC1 [Compound 25]
2690

Note, next up: O=C(O)C(=O)O.O=C(c1ccc(F)cc1)c1ccc(OCCCCCN2CCCCC2)cc1 [Compound 6]
2310

Note, next up: O=C(c1ccc(F)cc1)c1ccc(OCCCCCCN2CCCCCC2)cc1 [Compound 35]
1650

Note, next up: O=C(c1ccccc1)c1ccc(OCCCCCCN2CCCCC2)cc1 [Compound 9]
3730

Note, next up: CC1CCN(CCCCCOc2cccc(C(=O)c3ccccc3)c2)CC1 [Compound 22]
4450

Note, next up: CC1CCN(CCCCCCOc2cccc(C(=O)c3ccccc3)c2)CC1 [Compound 24]
2460

Note, next up: O=C(c1ccc(F)cc1)c1ccc(OCCCCCN2CCCCCC2)cc1 [Compound 30]
1110

Note, next up: CC1CCCN(CCCCCCOc2ccc(C(=O)c3ccc(F)cc3)cc2)C1 (centres unmarked) [Compound 21]
2000

Note, next up: CC1CCCN(CCCCCCOc2ccc(C(=O)c3ccc(Cl)cc3)cc2)C1 (centres unmarked) [Compound 20]
2740

Note, next up: O=C(c1ccccc1)c1cccc(OCCCCCN2CCCCCC2)c1 [Compound 27]
3660

Note, next up: O=C(c1ccccc1)c1cccc(OCCCCCCN2CCCCC2)c1 [Compound 8]
3630

Note, next up: CC1CCCN(CCCCCOc2ccc(C(=O)c3ccc(F)cc3)cc2)C1 (centres unmarked) [Compound 16]
2020

Note, next up: O=C(c1ccccc1)c1ccc(OCCCCCCN2CCCCCC2)cc1 [Compound 33]
1810
